- System: MDCK/hPEPT1 cells
- ASSAY REMARKS: Cell proliferation assay (XTT) in MDCK/hPEPT1 cells
- Type: cell-based
- RUN CONDITIONS: Canis lupus familiaris, MDCK, read-out: GI50, MDCK/hPEPT1
Task for the reader: assign each of the following molecules its reported log10 of GI50.
For clarity, the numbers are log10 values of GI50 expressed in µM.

According to the records, this molecule CC(C)[C@@H](N)C(=O)OC[C@H]1O[C@@H](n2cc(F)c(=O)[nH]c2=O)C[C@@H]1O displays log10 of GI50 of 1.85

Please fill in: log10 of GI50 reported for CC[C@H](C)[C@H](N)C(=O)OC[C@H]1O[C@@H](n2cc(F)c(=O)[nH]c2=O)C[C@@H]1O = 1.01

Documented log10 of GI50 of N[C@@H](Cc1ccccc1)C(=O)OC[C@H]1O[C@@H](n2cc(F)c(=O)[nH]c2=O)C[C@@H]1O : 0.67

Kindly note the recorded log10 of GI50 for CC(C)[C@H](N)C(=O)OC[C@H]1O[C@@H](n2cc(F)c(=O)[nH]c2=O)C[C@@H]1O , which is 1.32

For record CC(C)C[C@H](N)C(=O)OC[C@H]1O[C@@H](n2cc(F)c(=O)[nH]c2=O)C[C@@H]1O the listed log10 of GI50 is 0.36

* * *

- STUDY TARGET: hPEPT1 (Homo sapiens)
- Sequence (P46059 whole entry): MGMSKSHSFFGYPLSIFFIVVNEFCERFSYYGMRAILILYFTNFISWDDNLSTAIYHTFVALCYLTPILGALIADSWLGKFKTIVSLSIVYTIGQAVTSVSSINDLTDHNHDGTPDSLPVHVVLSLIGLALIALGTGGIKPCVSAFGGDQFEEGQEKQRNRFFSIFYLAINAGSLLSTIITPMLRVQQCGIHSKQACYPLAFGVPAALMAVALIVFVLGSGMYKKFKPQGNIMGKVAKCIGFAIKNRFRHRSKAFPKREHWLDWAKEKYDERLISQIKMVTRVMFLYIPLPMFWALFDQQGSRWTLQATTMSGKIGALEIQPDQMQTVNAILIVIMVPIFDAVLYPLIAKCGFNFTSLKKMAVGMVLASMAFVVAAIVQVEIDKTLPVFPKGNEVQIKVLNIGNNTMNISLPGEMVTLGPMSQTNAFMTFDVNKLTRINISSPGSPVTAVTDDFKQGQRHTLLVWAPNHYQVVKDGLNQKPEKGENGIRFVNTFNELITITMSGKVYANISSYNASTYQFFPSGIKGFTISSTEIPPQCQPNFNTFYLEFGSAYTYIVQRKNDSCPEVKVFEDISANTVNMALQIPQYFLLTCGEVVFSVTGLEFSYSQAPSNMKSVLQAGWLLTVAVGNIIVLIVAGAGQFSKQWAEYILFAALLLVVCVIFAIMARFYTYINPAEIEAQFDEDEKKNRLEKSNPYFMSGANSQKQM
- ASSAY REMARKS: [3H]Gly-Sar uptake inhibition in AsPC-1 cells
- Format: cell-based
- RUN CONDITIONS: 10 µmol/L Gly-Sar, 30 minutes, mean ± S.D., read-out: IC50 Value, inhibition of Gly-Sar uptake, AsPC-1 cell
Quick rule for you: IC50 under 3000 µM gets 1.0, anything else gets 0.0.

Please determine if O=c1[nH]c(=O)n([C@H]2C[C@H](O)[C@@H](CO)O2)cc1F is below 3000 µM in terms of IC50.
0.0

Is the reported IC50 for CC(C)C[C@H](N)C(=O)OC[C@H]1O[C@@H](n2cc(F)c(=O)[nH]c2=O)C[C@@H]1O strictly below 3000 µM?
1.0

Just wondering, is IC50 of N[C@@H](Cc1ccccc1)C(=O)OC[C@H]1O[C@@H](n2cc(F)c(=O)[nH]c2=O)C[C@@H]1O below 3000 µM?
1.0

A record lists CC[C@H](C)[C@H](N)C(=O)OC[C@H]1O[C@@H](n2cc(F)c(=O)[nH]c2=O)C[C@@H]1O . Is its IC50 below 3000 µM?
0.0

IC50 under 3000 µM? Item: NCC(=O)OC[C@H]1O[C@@H](n2cc(F)c(=O)[nH]c2=O)C[C@@H]1O
1.0

Decide: IC50 of CC(C)[C@H](N)C(=O)OC[C@H]1O[C@@H](n2cc(F)c(=O)[nH]c2=O)C[C@@H]1O strictly below 3000 µM?
1.0

Record CC(C)[C@@H](N)C(=O)OC[C@H]1O[C@@H](n2cc(F)c(=O)[nH]c2=O)C[C@@H]1O : is its IC50 strictly below 3000 µM?
0.0

* * *

Assignment: determine reported half-life for the given compounds.
- ASSAY REMARKS: Enzymatic stability in Caco-2 cell homogenates
- Assay type: in vitro ADME
- RUN CONDITIONS: human, Caco-2, pH 7.4; 37°C, protein 500 μg/mL, mean ± S.D.; read-out: Half Life, Homogenates from Caco-2 cells
Quick note: give the figure in min, leave out the unit.

Measured half-life, CC[C@H](C)[C@H](N)C(=O)OC[C@H]1O[C@@H](n2cc(F)c(=O)[nH]c2=O)C[C@@H]1O [5'-O-L-isoleucyl-floxuridine] : 192

For record CC(C)C[C@H](N)C(=O)OC[C@H]1O[C@@H](n2cc(F)c(=O)[nH]c2=O)C[C@@H]1O [5'-O-L-leucyl-floxuridine] the listed half-life is 4.8

# half-life (compound: O=c1[nH]c(=O)n([C@H]2C[C@H](O)[C@@H](CO)O2)cc1F [Floxuridine, 5-fluoro-2'-deoxyuridine] ) is 5.7
